# EC50 values compiled below
- test-system: ALPK1 (Homo sapiens, UniProt Q96QP1)
- Construct: endogenous in cells; host or cells: HEK293 (A1); HEK293 stably expressing an NF-kB-alkaline phosphatase reporter (A2)
- Sequence (Q96QP1 whole entry): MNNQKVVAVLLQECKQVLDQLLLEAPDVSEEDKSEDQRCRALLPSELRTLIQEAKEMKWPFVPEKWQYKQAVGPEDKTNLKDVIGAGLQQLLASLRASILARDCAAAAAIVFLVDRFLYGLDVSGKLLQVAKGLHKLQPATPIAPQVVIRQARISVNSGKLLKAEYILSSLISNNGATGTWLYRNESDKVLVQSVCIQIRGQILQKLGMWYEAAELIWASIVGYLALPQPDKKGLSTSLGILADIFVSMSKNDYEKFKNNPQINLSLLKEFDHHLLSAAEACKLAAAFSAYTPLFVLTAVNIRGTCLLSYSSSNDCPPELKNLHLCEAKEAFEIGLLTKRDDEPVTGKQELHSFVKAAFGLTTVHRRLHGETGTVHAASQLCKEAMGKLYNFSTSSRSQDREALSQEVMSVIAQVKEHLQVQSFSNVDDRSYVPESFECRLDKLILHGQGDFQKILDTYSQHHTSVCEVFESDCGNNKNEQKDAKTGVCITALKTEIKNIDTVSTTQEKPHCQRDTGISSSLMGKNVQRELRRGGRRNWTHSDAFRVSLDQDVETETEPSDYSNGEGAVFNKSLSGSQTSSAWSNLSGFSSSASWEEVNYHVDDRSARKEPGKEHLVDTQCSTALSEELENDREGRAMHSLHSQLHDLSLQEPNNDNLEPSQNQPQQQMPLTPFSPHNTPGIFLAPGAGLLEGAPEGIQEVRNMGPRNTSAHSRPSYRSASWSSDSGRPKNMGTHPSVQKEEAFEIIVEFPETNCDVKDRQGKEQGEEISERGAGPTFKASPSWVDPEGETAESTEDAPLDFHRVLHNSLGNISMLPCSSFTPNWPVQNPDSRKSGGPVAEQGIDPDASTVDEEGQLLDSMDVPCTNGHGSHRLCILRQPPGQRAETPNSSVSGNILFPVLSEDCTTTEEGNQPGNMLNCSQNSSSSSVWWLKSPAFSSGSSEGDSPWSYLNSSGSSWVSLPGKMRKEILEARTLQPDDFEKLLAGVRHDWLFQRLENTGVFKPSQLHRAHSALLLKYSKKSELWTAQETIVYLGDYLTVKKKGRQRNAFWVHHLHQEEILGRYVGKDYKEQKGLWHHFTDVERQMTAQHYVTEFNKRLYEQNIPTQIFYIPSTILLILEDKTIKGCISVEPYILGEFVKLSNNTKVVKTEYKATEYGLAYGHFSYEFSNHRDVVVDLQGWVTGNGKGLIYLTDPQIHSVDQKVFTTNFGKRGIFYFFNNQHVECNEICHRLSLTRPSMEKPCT
- measurement-notes: NF-kB promoter driven alkaline phosphatase reporter in HEK293 cells (pNPP assay)
- Type: cell-based
- reported-conditions: HEK293-NFkB-AP reporter cells treated 7 hours, FIG. 7B, Table 2C

- molecule: "CC(=O)OC[C@H](F)[C@H]1O[C@@H](OP(=O)(O)OP(O)(=S)OC[C@H]2O[C@@H](n3ncc4c(N)ncnc43)[C@H](O)[C@@H]2O)[C@@H](OC(C)=O)[C@@H](OC(C)=O)[C@@H]1OC(C)=O (some centres unmarked)"
  measurement-unit: "nM"
  EC50: 10100
- molecule: "CC(=O)OC[C@H](F)C1O[C@@H](OP(=O)(O)OP(O)(=S)OC[C@H]2O[C@@H](n3cnc4c(NC(=O)c5ccccc5)ncnc43)C(O)C2O)C(OC(C)=O)C(OC(C)=O)[C@@H]1OC(C)=O (some centres unmarked)"
  measurement-unit: "nM"
  EC50: 37.8

Ref: patent US20220177510A1
